FYI, the data here is from ChEMBL document CHEMBL1201862.

# Test system: CCRF-CEM
# TEST_SUMMARY: NCI tumour cell line growth inhibition, 48 h
Active and inactive are the calls of the source. Rule as the data show it: active = GI50 up to about 1.1 µM and inactive = higher.
One label from this list, please: true for active, false for inactive

Reference set (8 entries):
COMPOUND	SYSTEM	ANSWER_LABEL
C=C1CC(C)(c2ccc(Nc3nc4ccccc4c4occc34)cc2)OC1=O (stereo unspecified)	CCRF-CEM	true
COc1cccc(-c2cc(=O)c3cc(N4CCCCC4)ccc3[nH]2)c1	CCRF-CEM	true
CC1NOC(=O)C1/N=N/c1ccccc1Cl (stereo unspecified)	CCRF-CEM	false
c1ccc(C2C3=C(c4ccccc4CC3)N3c4cc5c(cc4=NC34CCCCC24)Nc2ccccc2N=5)cc1 (stereo unspecified)	CCRF-CEM	false
Cc1cccc(NC(=O)/C=C/c2ccc(N(CCC#N)CCC#N)cc2C)c1	CCRF-CEM	false
CC(=O)OC1COC(n2c(=S)n(-c3ccccc3)c(=O)c3cc(Br)ccc32)C(OC(C)=O)C1OC(C)=O (stereo unspecified)	CCRF-CEM	false
O=c1c(/C=C/c2c(O)ccc3ccccc23)nnc2sc(-c3cccc(Br)c3)nn12	CCRF-CEM	false
CC1(O)C(C)(O)C(C)(O)C1(C)O (stereo unspecified)	CCRF-CEM	false

Q) Call for entry CCOC(O)(NC(=O)C(C(F)(F)F)C(F)(F)F)C(F)(F)F (stereo unspecified) :
A) false

Q) Call for entry "COc1ccc(OC)c2sc(N3C(=O)/C(=C/c4cccc([N+](=O)[O-])c4)N=C3c3ccccc3)nc12" :
A) false

Q) Call for entry "Cc1ccc2nc(-c3ccc(C(C)(C)C)cc3)oc(=O)c2c1" :
A) false

Q) Call for entry CC1CC(c2ccc([N+](=O)[O-])cc2)=Nc2ccccc2S1 (stereo unspecified) :
A) false

Q) Call for entry "C[n+]1c(/C=C/c2ccc(O)c3ncccc23)[se]c2ccccc21" :
A) true

Q) Call for entry CCOC1=NC(C(F)(F)F)(C(F)(F)F)N=C(/N=C(/N)N(C)C(C(C)C)P(=O)(OC(C)C)OC(C)C)O1 (stereo unspecified) :
A) false

Q) Call for entry O=C1NN=C2C=C(c3ccc(Cl)cc3)CC(c3cccc(Cl)c3)C12 (stereo unspecified) :
A) false

---

Each entry below carries its reported GI50.
# Tested on: SW-620
# TEST_SUMMARY: NCI tumour cell line growth inhibition, 48 h
Activity calls are given as the source filed them. Rule as the data show it: active = GI50 up to about 1.1 µM and inactive = higher.

Q) Requested read-out: GI50. Entry: Cc1cn(CCC(N)C(=O)O)c(=O)[nH]c1=O (configuration not stated)
A) > 100 µM (inactive)

Q) Requested read-out: GI50. Entry: "CCSc1c2cc(OC)ccc2nc2ccc(OC)cc12"
A) 17.7 µM (inactive)

---

# Tested on: NCI-H460
# TEST_SUMMARY: NCI tumour cell line growth inhibition, 48 h
Active and inactive are the calls of the source. No stated cut-off is given here; in the data, active = GI50 up to about 1.1 µM and inactive = higher.
TEST_READOUT: GI50

Answered examples (5):
COMPOUND	GI50
CCC1=NC(CO)[C@H](c2ccccc2)O1 (stereo partly specified)	> 100 µM (inactive)
CC(C)C.C[N+](C)(C)C.OC(c1ccccc1)(C(F)(F)F)C(F)(F)F.OC(c1ccccc1)(C(F)(F)F)C(F)(F)F.[SiH3-]	2.04 µM (inactive)
Oc1cccc2nc3cc(CN4CCOCC4)c(CN4CCOCC4)cc3nc12	54.3 µM (inactive)
COc1ccccc1C(=O)Nc1ccc(Cl)c(C(=O)OC(C)C)c1	37.4 µM (inactive)
CC1(O)C(C)(O)C(C)(O)C1(C)O (stereo unspecified)	> 100 µM (inactive)

From here, focus on the item given below.
Q) Requested read-out: GI50. Entry: COc1ccc(C2=CC3CCC2C3)cc1 (stereo unspecified)
A) > 100 µM (inactive)

---

# System: CCRF-CEM
# TEST_SUMMARY: NCI tumour cell line growth inhibition, 48 h
The source made the active and inactive calls. No stated cut-off is given here; in the data, active = GI50 up to about 1.1 µM and inactive = higher.
One label from this list, please: 1 for active, 0 for inactive

Reference set (4 entries):
MOLECULE	SYSTEM	ANSWER_LABEL
O=c1c2c(F)c(F)c(F)c(F)c2sc2nccn12	CCRF-CEM	0
CN(C)C(=O)/C=C/c1c[nH]c(=O)[nH]c1=O	CCRF-CEM	0
O=C1Nc2ccccc2/C1=N/NC(=S)N1CCCC1	CCRF-CEM	1
COC12CC(O)=C(C(C)=O)C(=O)C1(C)c1c(OC(C)=O)c(C)c(O)c(C(C)=O)c1O2 (stereo unspecified)	CCRF-CEM	0

Q) Call for entry "CC(C)(C)OC(=O)NCC(=O)N(CCc1ccc(Cl)c(Cl)c1)CCN1CCCC1" :
A) 0

Q) Call for entry "O=C1C(=O)N(c2cc(Cl)ccc2Cl)C(=O)C(=O)C1c1nc2ccccc2o1" :
A) 0

Q) Call for entry O=C1OC2(C(F)(F)F)Oc3ccccc3CN2C12CCCCC2 (stereo unspecified) :
A) 0

Q) Call for entry "Nc1nc(-c2ccccc2)cc(-c2ccc(F)cc2)c1-c1ccc(Cl)cc1" :
A) 0

Q) Call for entry Clc1ccc(C2ON=C(c3ccccc3)N2C23CC4CC(CC(C4)C2)C3)cc1 (stereo unspecified) :
A) 0

Q) Call for entry "Fc1c(F)c(F)c2c(c1F)CSc1nc3ccccc3n1-2" :
A) 0

Q) Call for entry "c1cc2c(cnc3cscc32)s1" :
A) 0

---

Each entry below carries its reported GI50.
# System: EKVX
# TEST_SUMMARY: NCI tumour cell line growth inhibition, 48 h
The source made the active and inactive calls. Cut-off read from the data, not from the text of the source: active = GI50 up to about 1.1 µM and inactive = higher.

Answered examples (4):
1. NC(=O)N/N=C(\C(=O)C(=O)Nc1ccc(Cl)c(C(F)(F)F)c1)c1nc2ccc(C(=O)c3ccccc3)cc2nc1O 27.2 µM (inactive)
2. CCCCN(CCCC)C(=O)C(=O)CC(=O)/C=C/c1ccccc1 > 100 µM (inactive)
3. CC(=O)c1ccc2c(c1)c1c(C)c3c[n+](C)ccc3c(C)c1n2C 33.3 µM (inactive)
4. CCOC(=O)c1cc(NC(=O)c2ccccc2)c(=O)n2c(cc3c(Cl)cccc32)c1O > 100 µM (inactive)

From here, focus on the item given below.
Q) Requested read-out: GI50. Entry: "O=c1c2cc(-c3ccccc3)sc2nc2n1N=C(c1ccccc1)CS2"
A) 24.9 µM (inactive)

---

Each entry below carries its reported GI50.
# Tested on: SK-OV-3
# TEST_SUMMARY: NCI tumour cell line growth inhibition, 48 h
Activity calls are given as the source filed them. Rule as the data show it: active = GI50 up to about 1.1 µM and inactive = higher.

COMPOUND	GI50
O=C1c2cc3c(cc2[C@@H]2C(O)[C@H]4O[C@H]4C4CCN1C42)OCO3 (stereo not given in full)	> 37.5 µM (inactive)
Cc1sc2nc(-c3cccc([N+](=O)[O-])c3)c(/C=N/N=C(N)N)n2c1C	1.8 µM (inactive)
Nc1ccc(/N=N/c2ccc(/C=C/c3ccc(/N=N/c4ccc(N)c5ccc(S(=O)(=O)O)cc45)cc3S(=O)(=O)O)c(S(=O)(=O)O)c2)c2cc(S(=O)(=O)O)ccc12	> 100 µM (inactive)

Q) Requested read-out: GI50. Entry: "Cc1ccc(NS(=O)(=O)c2cc(C(C)(C)C)ccc2OCCOCCOCCOc2ccc(C(C)(C)C)cc2S(=O)(=O)Nc2ccc(C)cc2)cc1"
A) > 100 µM (inactive)

---

Each entry below carries its reported GI50.
# System: OVCAR-3
# TEST_SUMMARY: NCI tumour cell line growth inhibition, 48 h
Activity calls are given as the source filed them. Cut-off read from the data, not from the text of the source: active = GI50 up to about 1.1 µM and inactive = higher.

COMPOUND	GI50
c1cc2c(cnc3cscc32)s1	> 100 µM (inactive)
ClC1=C(Cc2ccccc2)Cc2ccc3c(c21)CCC3	36.4 µM (inactive)
CCNC(=O)Nc1cccc(NC(=O)NCC)n1	> 100 µM (inactive)
NCCCN1CCN(CC(=O)O)CCN(CCCN)CCN(CC(=O)O)CC1	> 31.8 µM (inactive)
C=C(CCCCCCCCC)CC(=O)SCCNC(=O)CCNC(=O)C(O)C(C)(C)COP(=O)(O)OP(=O)(O)OCC1OC(n2cnc3c(N)ncnc32)C(O)C1OP(=O)(O)O (stereo not given)	77.8 µM (inactive)
Cc1ccc(NC(=O)CC/C(CC(=O)C(C)(C)C)=N/NC(=O)c2cc3ccccc3cc2O)cc1C	32.7 µM (inactive)
CCOC(=O)CCC(C(=O)OCC)n1nnc2ccc(Nc3c(C)[n+]([O-])c4ccc(Cl)cc4[n+]3[O-])cc21 (stereo not given)	32.1 µM (inactive)
Cn1cc(NC(=O)Nc2cc(C(=O)Nc3cc(C(=O)Nc4ccc5cc(S(=O)(=O)O)cc(S(=O)(=O)O)c5c4)n(C)c3)n(C)c2)cc1C(=O)Nc1cc(C(=O)Nc2ccc3cc(S(=O)(=O)O)cc(S(=O)(=O)O)c3c2)n(C)c1	84.3 µM (inactive)

Q) Requested read-out: GI50. Entry: "Cc1ccc(Cc2nn(C)c(=O)n2-n2cccc2)cc1"
A) > 100 µM (inactive)

Q) Requested read-out: GI50. Entry: C=C1C(=O)OCC2C(C(=O)O)=CC3C(C)C(C)=CC123 (stereo not given)
A) 12.4 µM (inactive)

Q) Requested read-out: GI50. Entry: "O=C(O)c1cc2cc(OCc3ccccc3)ccc2[nH]1"
A) > 100 µM (inactive)

Q) Requested read-out: GI50. Entry: COC(=O)CCc1cc(OC)c(O)c(C(Cc2ccc(OC)c(OC)c2)C(=O)OC)c1 (stereo not given)
A) > 100 µM (inactive)

Q) Requested read-out: GI50. Entry: CC(C)C1OCC(CO)CO1 (stereo not given)
A) > 100 µM (inactive)
